Hey, just so you know, these numbers are from ChEMBL document CHEMBL5244273.

assay: Selectivity index, ratio of GI50 for cytotoxicity against HUVEC cells to MIC for antitubercular activity against dormant stage of Mycobacterium tuberculosis H37Ra; assay type: toxicity, cell-based; settings: human, read-out: Selectivity Index
Quantity measured: selectivity ratio
Numbers only.

Before answering, review these 4 worked examples.
Query: selectivity ratio; subject: O=C(OC1CCCCC1)c1ccsc1NC(=O)[C@@H]1CCCN1
Reply: 27.9

Query: Please look up its selectivity ratio: COC(=O)c1sccc1NC(=O)[C@@H]1CCCN1
Reply: 13.6

Query: Entry C=CCOC(=O)c1ccsc1NC(=O)[C@@H]1CCCN1 : reported selectivity ratio = ?
Reply: 73.3

Query: Which selectivity ratio value belongs to COC(=O)c1ccsc1NC(=O)[C@H]1CCCN1 ?
Reply: 10.9

Then this molecule:
Query: What value of selectivity ratio has been reported for the following molecule? O=C1CC[C@@H](COC(=O)c2ccsc2NC(=O)[C@@H]2CCCN2)N1
Reply: 13.3

---

experiment: Selectivity index, ratio of GI50 for cytotoxicity against human MCF7 cells to MIC for antitubercular activity against dormant stage of Mycobacterium tuberculosis H37Ra; format: toxicity, cell-based; conditions: read-out: Selectivity Index
Record form. Attribute: selectivity ratio. Fill in for each entry.

Examples from the recorded data:
Query: Consider the molecule COC(=O)c1sccc1NC(=O)[C@@H]1CCCN1 and give its measured selectivity ratio.
Reply: 24.2

Query: What value of selectivity ratio has been reported for the following molecule? O=C(Oc1ccccc1)c1ccsc1NC(=O)[C@@H]1CCCN1
Reply: > 10.6

Query: Name the reported selectivity ratio value associated with the molecule O=C(OCc1ccccc1)c1ccsc1NC(=O)[C@@H]1CCCN1
Reply: > 66.5

Query: Recorded selectivity ratio of COC(=O)c1ccsc1NC(=O)[C@@H]1CCCN1 , please.
Reply: > 74.6

Query: Give its selectivity ratio value. Item: O=C(OC1CCCCC1)c1ccsc1NC(=O)[C@@H]1CCCN1
Reply: 33

Next:
Query: For O=C(OCC(Cl)(Cl)Cl)c1ccsc1NC(=O)[C@@H]1CCCN1 , what is its reported selectivity ratio?
Reply: > 15.5

---

assay: Selectivity index, ratio of GI50 for cytotoxicity against HUVEC cells to MIC for antitubercular activity against active stage of Mycobacterium tuberculosis H37Ra; type: toxicity, cell-based; conditions: human, read-out: Selectivity Index
Record form. Attribute: selectivity ratio. Fill in for each entry.
Answers are plain numbers.

Lab note: each compound below needs its selectivity ratio filled in.
1. COC(=O)c1ccsc1NC(=O)[C@H]1CCCN1
2. O=C1CC[C@@H](COC(=O)c2ccsc2NC(=O)[C@@H]2CCCN2)N1
3. O=C(OC1CCCCC1)c1ccsc1NC(=O)[C@@H]1CCCN1
4. C=CCOC(=O)c1ccsc1NC(=O)[C@@H]1CCCN1
5. COC(=O)c1sccc1NC(=O)[C@@H]1CCCN1

Reply:
8.84
9.36
5.57
6.41
5.75

---

test: Selectivity index, ratio of GI50 for cytotoxicity against human MCF7 cells to MIC for antitubercular activity against dormant stage of Mycobacterium tuberculosis H37Ra; type: toxicity, cell-based; settings: read-out: Selectivity Index
Quantity measured: selectivity ratio
One number for each entry.

Query: Would you kindly share the measured selectivity ratio for O=C1CC[C@@H](COC(=O)c2ccsc2NC(=O)[C@@H]2CCCN2)N1 ?
Reply: 22.1

Query: Entry under review: C=CCOC(=O)c1ccsc1NC(=O)[C@@H]1CCCN1 . Reported selectivity ratio?
Reply: 47.6

Query: Request the reported selectivity ratio associated with O=C(OCC(F)(F)F)c1ccsc1NC(=O)[C@@H]1CCCN1
Reply: 83

Next:
Query: Would you kindly share the measured selectivity ratio for COC(=O)c1ccsc1NC(=O)[C@H]1CCCN1 ?
Reply: 20.4
